Test: PK of sofosbuvir alone or with Compound E (and ledipasvir)
Assay type: in vivo
Conditions: human, in vivo, SOF + Compound E + ledipasvir; n = 18; mean (% CV)
Assay Metric: AUC(0-inf) (µg·h/mL)

>>> obs_value("CC(C)OC(=O)[C@H](C)N[P@](=O)(OC[C@H]1O[C@@H](n2ccc(=O)[nH]c2=O)[C@](C)(F)[C@@H]1O)Oc1ccccc1")
2.56

* * *

Assay: PK of Sofosbuvir/Ledipasvir tablets fasted or with meals
Conditions: plasma, po, AUClast, plasma analyte; Sofosbuvir/Ledipasvir Tablet, Moderate-Fat Meal; n = 29; mean (% CV)
Assay Metric: AUC(0-t) (ng·h/mL)

>>> obs_value("COC(=O)N[C@H](C(=O)N1CC2(CC2)C[C@H]1c1ncc(-c2ccc3c(c2)C(F)(F)c2cc(-c4ccc5nc([C@@H]6[C@H]7CC[C@H](C7)N6C(=O)[C@@H](NC(=O)OC)C(C)C)[nH]c5c4)ccc2-3)[nH]1)C(C)C")
8650

* * *

Experiment: pH-solubility profile and solubility in simulated intestinal media
Assay type: physicochemical
Details: SIBLM (simulated intestinal bile salt and lecithin mixture), pH 6.4, fassgf or other biorelevant, thermodynamic from solid, SIBLM pH = 6.4, room temperature
Assay Metric: solubility at 48 h (µg/mL)

>>> obs_value("COC(=O)N[C@H](C(=O)N1CC2(CC2)C[C@H]1c1ncc(-c2ccc3c(c2)C(F)(F)c2cc(-c4ccc5nc([C@@H]6[C@H]7CC[C@H](C7)N6C(=O)[C@@H](NC(=O)OC)C(C)C)[nH]c5c4)ccc2-3)[nH]1)C(C)C [Ledipasvir amorphous free base]")
232

* * *

Assay: PK of sofosbuvir alone or with Compound E (and ledipasvir)
Assay type: in vivo
Conditions: human, in vivo, po, 400 mg, SOF alone (400 mg single dose, fed); n = 18; mean (% CV)
Assay Metric: AUC(0-inf) (ng·h/mL)

>>> obs_value("CC(C)OC(=O)[C@H](C)N[P@](=O)(OC[C@H]1O[C@@H](n2ccc(=O)[nH]c2=O)[C@](C)(F)[C@@H]1O)Oc1ccccc1 [Sofosbuvir]")
921

* * *

Test: Aqueous solubility with 0.1% w/w surfactants and polymers; dissolution behavior of forms
Format: physicochemical
Conditions: pH 5, aqueous with cosolvent or surfactant or cyclodextrin, thermodynamic from solid, 0.1% w/w HPC (hydroxypropylcellulose), pH 5
Experimental: Excess solid was added to aqueous buffered solutions; samples were withdrawn at predetermined intervals (2, 5, 8, 10, 15, 20, 30, 45, 60 minutes, and 24 hours), filtered through regenerated cellulose filters, and diluted for concentration measurement by the HPLC-UV method.
Assay Metric: solubility (µg/mL)

>>> obs_value("COC(=O)N[C@H](C(=O)N1CC2(CC2)C[C@H]1c1ncc(-c2ccc3c(c2)C(F)(F)c2cc(-c4ccc5nc([C@@H]6[C@H]7CC[C@H](C7)N6C(=O)[C@@H](NC(=O)OC)C(C)C)[nH]c5c4)ccc2-3)[nH]1)C(C)C [Ledipasvir amorphous free base]")
0.1

* * *

Experiment: clinical
Settings: in vivo, po, AUClast, plasma analyte; Sofosbuvir/Ledipasvir Tablet, Fasted; n = 29; mean (% CV)
Assay Metric: AUC(0-t) (ng·h/mL)

>>> obs_value("CC(C)OC(=O)[C@H](C)N[P@](=O)(OC[C@H]1O[C@@H](n2ccc(=O)[nH]c2=O)[C@](C)(F)[C@@H]1O)Oc1ccccc1")
1520

* * *

Assay: Aqueous solubility with 0.1% w/w surfactants and polymers; dissolution behavior of forms
Format: physicochemical
Conditions: pH 5, aqueous with cosolvent or surfactant or cyclodextrin, thermodynamic from solid, 0.1% w/w Poloxamer 188, pH 5
Assay Metric: solubility (µg/mL)

>>> obs_value("COC(=O)N[C@H](C(=O)N1CC2(CC2)C[C@H]1c1ncc(-c2ccc3c(c2)C(F)(F)c2cc(-c4ccc5nc([C@@H]6[C@H]7CC[C@H](C7)N6C(=O)[C@@H](NC(=O)OC)C(C)C)[nH]c5c4)ccc2-3)[nH]1)C(C)C [Ledipasvir amorphous free base]")
0.5

* * *

Test: PK of sofosbuvir alone or with Compound E (and ledipasvir)
Format: in vivo
Details: human, in vivo, po, 400 mg, SOF + Compound E (500 mg QD), fed; n = 18; mean (% CV)
Assay Metric: AUC(0-inf) (ng·h/mL)

>>> obs_value("CC(C)OC(=O)[C@H](C)N[P@](=O)(OC[C@H]1O[C@@H](n2ccc(=O)[nH]c2=O)[C@](C)(F)[C@@H]1O)Oc1ccccc1")
1150

* * *

Assay: pH-solubility profile and solubility in simulated intestinal media
Format: physicochemical
Details: pH-adjusted aqueous solution, pH 7.2, aqueous buffer, thermodynamic from solid, Aqueous, pH 7.2 (NaOH), room temperature
Assay Metric: solubility at 48 h (µg/mL)

>>> obs_value("COC(=O)N[C@H](C(=O)N1CC2(CC2)C[C@H]1c1ncc(-c2ccc3c(c2)C(F)(F)c2cc(-c4ccc5nc([C@@H]6[C@H]7CC[C@H](C7)N6C(=O)[C@@H](NC(=O)OC)C(C)C)[nH]c5c4)ccc2-3)[nH]1)C(C)C [Ledipasvir amorphous free base]")
0.01

* * *

Experiment: Aqueous solubility with 0.1% w/w surfactants and polymers; dissolution behavior of forms
Assay type: physicochemical
Conditions: aqueous citrate buffer with excipient, pH 2, aqueous with cosolvent or surfactant or cyclodextrin, thermodynamic from solid, 0.1% w/w Sodium lauryl sulfate, pH 2
Assay Metric: solubility (µg/mL)

>>> obs_value("COC(=O)N[C@H](C(=O)N1CC2(CC2)C[C@H]1c1ncc(-c2ccc3c(c2)C(F)(F)c2cc(-c4ccc5nc([C@@H]6[C@H]7CC[C@H](C7)N6C(=O)[C@@H](NC(=O)OC)C(C)C)[nH]c5c4)ccc2-3)[nH]1)C(C)C [Ledipasvir amorphous free base]")
50

* * *

Test: clinical
Conditions: in vivo, po, Cmax, plasma analyte; Sofosbuvir/Ledipasvir Tablet, Fasted; n = 29; mean (% CV)
Assay Metric: Cmax

>>> obs_value("CC(C)OC(=O)[C@H](C)N[P@](=O)(OC[C@H]1O[C@@H](n2ccc(=O)[nH]c2=O)[C@](C)(F)[C@@H]1O)Oc1ccccc1 [Sofosbuvir]")
"1240 ng/mL"

* * *

Experiment: PK of sofosbuvir alone or with Compound E (and ledipasvir)
Assay type: in vivo
Conditions: human, in vivo, po, 400 mg, SOF alone (400 mg single dose, fed); n = 18; mean (% CV)
Assay Metric: Cmax

>>> obs_value("CC(C)OC(=O)[C@H](C)N[P@](=O)(OC[C@H]1O[C@@H](n2ccc(=O)[nH]c2=O)[C@](C)(F)[C@@H]1O)Oc1ccccc1 [Sofosbuvir]")
"515 ng/mL"

* * *

Experiment: PK of Sofosbuvir/Ledipasvir tablets fasted or with meals
Settings: plasma, po, AUClast, plasma analyte; Sofosbuvir/Ledipasvir Tablet, Fasted; n = 29; mean (% CV)
Assay Metric: AUC(0-t)

>>> obs_value("COC(=O)N[C@H](C(=O)N1CC2(CC2)C[C@H]1c1ncc(-c2ccc3c(c2)C(F)(F)c2cc(-c4ccc5nc([C@@H]6[C@H]7CC[C@H](C7)N6C(=O)[C@@H](NC(=O)OC)C(C)C)[nH]c5c4)ccc2-3)[nH]1)C(C)C")
"8.6 µg·h/mL"

* * *

Test: clinical
Conditions: in vivo, po, AUClast, plasma analyte; Sofosbuvir/Ledipasvir Tablet, High-Calorie/High-Fat Meal; n = 29; mean (% CV)
Assay Metric: AUC(0-t) (ng·h/mL)

>>> obs_value("CC(C)OC(=O)[C@H](C)N[P@](=O)(OC[C@H]1O[C@@H](n2ccc(=O)[nH]c2=O)[C@](C)(F)[C@@H]1O)Oc1ccccc1")
2550

* * *

Experiment: Pharmacokinetics of sofosbuvir and ledipasvir alone or in combination
Type: in vivo
Settings: in vivo, po, plasma analyte; Sofosbuvir + Ledipasvir; n = 17; mean (% CV)
Assay Metric: AUC(0-inf) (µg·h/mL)

>>> obs_value("CC(C)OC(=O)[C@H](C)N[P@](=O)(OC[C@H]1O[C@@H](n2ccc(=O)[nH]c2=O)[C@](C)(F)[C@@H]1O)Oc1ccccc1 [Sofosbuvir]")
1.75

* * *

Test: Excipient and organic solvent solubility
Assay type: physicochemical
Settings: pH 2.5, aqueous with cosolvent or surfactant or cyclodextrin, thermodynamic from solid
Assay Metric: solubility (mg/mL)

>>> obs_value("COC(=O)N[C@H](C(=O)N1CC2(CC2)C[C@H]1c1ncc(-c2ccc3c(c2)C(F)(F)c2cc(-c4ccc5nc([C@@H]6[C@H]7CC[C@H](C7)N6C(=O)[C@@H](NC(=O)OC)C(C)C)[nH]c5c4)ccc2-3)[nH]1)C(C)C [Ledipasvir amorphous free base]")
25

* * *

Test: pH-solubility profile and solubility in simulated intestinal media
Assay type: physicochemical
Settings: pH-adjusted aqueous solution (HCl), pH 2.3, aqueous buffer, thermodynamic from solid, Aqueous, pH 2.3 (HCl), room temperature
Assay Metric: solubility at 48 h (mg/mL)

>>> obs_value("COC(=O)N[C@H](C(=O)N1CC2(CC2)C[C@H]1c1ncc(-c2ccc3c(c2)C(F)(F)c2cc(-c4ccc5nc([C@@H]6[C@H]7CC[C@H](C7)N6C(=O)[C@@H](NC(=O)OC)C(C)C)[nH]c5c4)ccc2-3)[nH]1)C(C)C [Ledipasvir amorphous free base]")
1
